- system-tested: p38 (Homo sapiens)
- Construct: endogenous in cells; immunoprecipitated with a p38 antibody
- Sequence (Q16539 2-360 limits assumed): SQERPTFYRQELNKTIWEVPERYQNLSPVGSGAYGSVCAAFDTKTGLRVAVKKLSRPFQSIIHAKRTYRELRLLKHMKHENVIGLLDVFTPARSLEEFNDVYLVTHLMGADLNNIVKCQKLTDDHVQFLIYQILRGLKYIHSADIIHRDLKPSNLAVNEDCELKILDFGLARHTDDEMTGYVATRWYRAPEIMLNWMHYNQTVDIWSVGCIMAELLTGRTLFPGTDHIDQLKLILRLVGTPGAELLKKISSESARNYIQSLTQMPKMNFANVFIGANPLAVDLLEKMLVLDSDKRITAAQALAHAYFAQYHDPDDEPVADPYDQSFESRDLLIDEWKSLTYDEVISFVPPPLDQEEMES
- measurement-description: p38 in vitro kinase assay
- reported-conditions: Supplementary Fig. 4b; read-out: observed IC50 against p38
quantity-kind: pIC50
Would you please state pIC50, meaning minus log10 of the concentration in mol/L, as a bare number?

Query block: Indicate its recorded pIC50; the compound in question is Fc1ccc(Cl)cc1-c1nc(Nc2ccncc2)c2nccnc2n1
Result block: 6.04

====

- system-tested: NLK (Homo sapiens, UniProt Q9UBE8)
- Construct: NLK, p38, or ALK5 for in vitro kinase assays were immunopurified from Kp53A1 cells; endogenous in cells; immunoprecipitated with anti-NLK (Abcam AB97642)
- Sequence (Q9UBE8 whole entry): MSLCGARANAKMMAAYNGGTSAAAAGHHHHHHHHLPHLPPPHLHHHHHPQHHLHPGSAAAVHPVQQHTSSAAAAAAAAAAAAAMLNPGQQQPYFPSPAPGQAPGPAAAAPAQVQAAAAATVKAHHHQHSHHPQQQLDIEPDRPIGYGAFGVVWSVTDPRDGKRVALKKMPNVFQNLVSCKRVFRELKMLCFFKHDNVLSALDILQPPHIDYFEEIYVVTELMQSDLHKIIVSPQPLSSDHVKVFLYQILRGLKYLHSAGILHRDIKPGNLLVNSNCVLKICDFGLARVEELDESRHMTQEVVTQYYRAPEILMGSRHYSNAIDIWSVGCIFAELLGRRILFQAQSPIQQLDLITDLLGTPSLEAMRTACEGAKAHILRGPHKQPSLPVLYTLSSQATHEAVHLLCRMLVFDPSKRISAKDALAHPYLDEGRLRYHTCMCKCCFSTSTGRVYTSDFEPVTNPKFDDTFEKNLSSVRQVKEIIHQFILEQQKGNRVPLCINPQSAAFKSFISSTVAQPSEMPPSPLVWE
- measurement-description: NLK in vitro kinase assay (NLK, c-Myb, Raptor substrates)
- Type: biochemical
- reported-conditions: Fig. 3f; activated NLK from stimulated Kp53A1 cells; read-out: NLK Observed IC50
Give pIC50 for every item shown.
# pIC50: negative log10 of molar concentration; output just the value

Query block: Please indicate pIC50 recorded for Cn1c(NC[C@@H](N)Cc2ccccc2)nc(-c2ccncc2)c(-c2ccc3ccccc3c2)c1=O
Result block: 8.44

Query block: Return the recorded pIC50 value; entry: CCc1nc(-c2cccc(C)c2)c(-c2ccnc(NC(=O)c3ccccc3)c2)s1
Result block: 5.03
